Biological target: Substance-K receptor (Rattus norvegicus)
Sequence (whole entry): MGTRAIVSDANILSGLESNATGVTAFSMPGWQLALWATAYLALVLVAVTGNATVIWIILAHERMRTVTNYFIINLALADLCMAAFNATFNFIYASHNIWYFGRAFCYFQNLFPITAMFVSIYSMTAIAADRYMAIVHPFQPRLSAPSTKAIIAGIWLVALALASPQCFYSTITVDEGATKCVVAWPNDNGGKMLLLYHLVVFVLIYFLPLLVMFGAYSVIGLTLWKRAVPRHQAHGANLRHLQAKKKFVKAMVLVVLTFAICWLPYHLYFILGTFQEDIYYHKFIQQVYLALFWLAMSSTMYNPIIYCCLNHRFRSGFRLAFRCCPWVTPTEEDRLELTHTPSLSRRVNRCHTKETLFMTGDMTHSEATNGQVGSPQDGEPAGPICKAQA
Experiment: Antagonist activity at NK2 receptor in rat urinary bladder assessed as effect on beta-Ala8]NKA(4-10)-induced mechanical activity
Format: functional
Conditions: filed as antagonist
quantity.name: pKb

* O=C1C[C@@H](NC[C@H](O)[C@@H](O)[C@H](O)[C@H](O)CO)C(=O)NC[C@@H](Cc2ccccc2)NC(=O)[C@H](Cc2ccccc2)NC(=O)[C@H](Cc2c[nH]c3ccccc23)N1 | 8.8
* O=C1C[C@@H](NC(=O)CN2CCC(N3CCOCC3)CC2)C(=O)NC[C@@H](Cc2ccccc2)NC(=O)[C@H](Cc2ccccc2)NC(=O)[C@H](Cc2c[nH]c3ccccc23)N1 | 9.7
* O=C1C[C@H](N2CCOCC2)C(=O)NC[C@@H](Cc2ccccc2)NC(=O)[C@H](Cc2ccccc2)NC(=O)[C@H](Cc2c[nH]c3ccccc23)N1 | 8.9
